- Test system: TO-N3-2 (biotin conjugate)
- PROTOCOL_NOTES: pull-down binding Z-score (relative to library population); higher = stronger binding
- CONDITIONS: RNA library: Library-2
RECORDED_METRIC: pull-down binding Z-score
Reply: number alone, nothing else.

Please report the recorded pull-down binding Z-score for CUUUCUGUUGUCUAAAAGAAAAGAACG [hsa-mir-521-1] .
0.0505

What do you get for ACCAGUUAACUGGU [SHAPE_invitro_SARS-CoV-2_Motif_121] ?
-1.19

Would you mind doing UUACACCACUGGGCAUUGAUUUAGAUGAGUGGAGUAUGGCUACAUACUACUUAUUUGAUGAGUCUGGUGAGUUUAA as well?
-1.04

Now the same for CUCAGCCUGGAAAAAGCUGAG [hsa-mir-4765]
-0.646

Try the sequence GUCUCGGUCCUUUGGAACGUGGC [hsa-mir-4470]
-0.476

Now this one: CAGUUGUACUGUGGCUG [hsa-mir-1291]
0.0227

CAUCAUUUGCACUACUGAUACUUGGGGUCAGAUAAUUGUUUGUGGUG [hsa-mir-4447] ?
-0.616

Again, but for UGGGUUACAUCCUACACAGGCACCUACACACCUCAGUGUUGACACUAAAUUCAAAACUGAAGGUUUAUGUGUUGACAUACCUGGCAUACCUAAGGACAUGACCUA
0.213

What about this sequence? UCAAGACUAUUCAACCAAGGGUUGAAAAGAAAAAGCUUGA [SHAPE_invivo_SARS-CoV-2_Motif_22]
-0.823

Another sequence: ACAGAGUGAGAUGGUCUUGUUUUGU [hsa-mir-5684]
-0.546

Item: AGUGAGCUGAGAUCACGCAACU [hsa-mir-1273f]
0.629

Similarly, GAUGUUCUUGUUAACAACUAAACGAACAAUGUUUGUUUUUCUUGUUUUAUUGCCACUAGUCUCUAGUCAGUGUGUUAAUCUUACAACCAGAACUC [DMSMaPseq_invitro_SARS-CoV-2_Multi_63_ComplexLevel_1] ?
-0.457

Param item: GUGAACCUGAAUUUGCCUUGGGUUUCCU [hsa-mir-670]
1.76

Next up: ACAAUUAUGAAAGAAAAGAAAUUGU [hsa-mir-3611]
-0.566

Moving on to AAAUAAGAGGCUAGGAUUGCCUCUUAUUU [hsa-mir-3201]
-1.57

Here is the next sequence: CUGAGCUGGGUACUGCCUGUUCAG [hsa-mir-589]
0.0632

Also GCUUGGAGCCUUGGUAGGGAAGCAAGCUGAGGAGAUAGGA [hsa-mir-7154] , if possible.
1.92

Likewise for CCCGGCCGGCAGCCCCCGGCCUUAAAGCGCGGG [hsa-mir-4741] ?
2.16

Try GGAUAGAAACUAUUAUUCUAUUC [hsa-mir-664a] next.
-1.38
